Below, each entry is listed with its recorded Kd.
Target: T1, soluble uPAR (suPAR) (UniProt Q03405 23-305, limits assumed)
T1 construct: Analyte in the Biacore capture assay
T1 sequence (Q03405 23-305 limits assumed): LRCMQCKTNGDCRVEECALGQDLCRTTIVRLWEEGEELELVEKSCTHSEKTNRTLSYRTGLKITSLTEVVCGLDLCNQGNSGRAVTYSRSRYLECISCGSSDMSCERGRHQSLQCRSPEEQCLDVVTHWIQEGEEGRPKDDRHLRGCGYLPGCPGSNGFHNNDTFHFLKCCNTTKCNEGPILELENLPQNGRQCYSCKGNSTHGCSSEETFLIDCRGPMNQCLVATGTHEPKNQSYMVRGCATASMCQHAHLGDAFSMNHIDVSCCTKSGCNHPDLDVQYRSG
Test: SPR (Biacore 2000), antibody captured on protein A/G surface, suPAR as analyte, 25 C, 1:1 Langmuir fit
I only need the number, in nM, no unit after it.

Check out these entries, answers already filled in.
INSERT INTO results (binder, readouttype, uom, recordednumber) VALUES
  ('HE ™ ATN-2 (antibody, IgG1, V domains shown, Human gamma-1 and kappa constant region modules (IgG1, kappa); made in HEK293E cells) VH: EVQLVQSGPEVVKTGASVKISCKASGYSFTSYYMHWVKQAHGQGLEWIGEINPYNGGASYNQKIKGRATFTVDTSTRTAYMEFSSLRSEDTAVYYCARSIYGHSVLDYWGQGTLVTVSS VL: DVVMTQSPLSLSVTIGEPASISCRSSQSLLDSDGKTYLNWLLQKPGQSPQRLIYLVSKRDSGVPDRFSGSGSGTDFTLKISRVEAEDVGVYYCWQGTHFPLTFGQGTKLEIK', 'Kd', 'nM', 0.38),
  ('HE ™ ATN-3 (antibody, IgG1, V domains shown, Human gamma-1 and kappa constant region modules (IgG1, kappa); made in HEK293E cells) VH: EVQLVQSGPEVKKTGASVKISCKASGYSFTSYYMHWVRQAHGQGLEWIGEINPYNGGASYNQKIQGRATFTVDTSTSTAYMEFSSLRSEDTAVYYCARSIYGHSVLDYWGQGTLVTVSS VL: DVVMTQSPLSLSVTIGEPASISCRSSQSLLDSDGKTYLNWLLQKPGQSPKRLIYLVSKRDSGVPDRFSGSGSGTDFTLKISRVEAEDVGVYYCWQGTHFPLTFGQGTKLEIK', 'Kd', 'nM', 0.28),
  ('HE ™ ATN-1 (antibody, IgG1, V domains shown, V regions cloned into transient expression vectors with human gamma-1 and kappa constant region modules (IgG1, kappa); made in HEK293E cells) VH: EVQLVQSGPEVVKTGASVKISCKASGYSFTSYYMHWVKQAHGQGLEWIGEINPYNGGASYNQKIKGRATFTVDTSTRTAYMEFSSLRSEDTAVYYCARSIYGHSVLDYWGQGTLVTVSS VL: DVVMTQSPLSLSVTIGEPASISCRSSQSLLDSDGKTYLNWLLQKPGQSPKRLIYLVSKRDSGVPDRFSGSGSGTDFTLKISRVEAEDVGVYYCWQGTHFPLTFGQGTKLEIK', 'Kd', 'nM', 0.28);

Switching to the query record.
# input Name the reported Kd value associated with the binder HE ™ ATN-4 (renamed MNPR-101) (antibody, human IgG1, kappa, V domains shown, IgG1 kappa; In the Biacore assay the transiently expressed (HEK293E), unconjugated antibody was used; also called mAb MNPR-101; humanized mAb MNPR-101) VH: EVQLVQSGPEVKKTGASVKISCKASGYSFTSYYMHWVRQAHGQGLEWIGEINPYNGGASYNQKIQGRATFTVDTSTSTAYMEFSSLRSEDTAVYYCARSIYGHSVLDYWGQGTLVTVSS VL: DVVMTQSPLSLSVTIGEPASISCRSSQSLLDSDGKTYLNWLLQKPGQSPQRLIYLVSKRDSGVPDRFSGSGSGTDFTLKISRVEAEDVGVYYCWQGTHFPLTFGQGTKLEIKR
# output 0.39

Origin of the recorded values: patent US20220409751A1
